experiment: Biodistribution in Gossypium hirsutum (cotton) plant leaf at 500 mg/L after 8 hr; format: ADME, organism-based; settings: read-out: Drug uptake
measurement type: concentration at 8 h (ng/g)
# unit: ng/g | format: bare number

Input: Using known records, supply concentration at 8 h for `CCCON=C1CCCCCCCCCCC(=O)NCCC1`
Output: 110

---

test: Biodistribution in Gossypium hirsutum (cotton) plant root at 500 mg/L after 4 hr; assay type: ADME, organism-based; conditions: read-out: Drug uptake
measurement type: concentration at 4 h (ng/g)
# unit: ng/g | format: bare number

Input: Using known records, supply concentration at 4 h for `CCCON=C1CCCCCCCCCCC(=O)NCCC1`
Output: 54400

---

experiment: Biodistribution in Gossypium hirsutum (cotton) plant leaf at 500 mg/L after 4 hr; format: ADME, organism-based; settings: read-out: Drug uptake
measurement type: concentration at 4 h (ng/g)
# unit: ng/g | format: bare number

Input: Using known records, supply concentration at 4 h for `CCCON=C1CCCCCCCCCCC(=O)NCCC1`
Output: 40

---

assay: Biodistribution in Gossypium hirsutum (cotton) plant stem at 500 mg/L after 24 hr; assay type: ADME, organism-based; details: read-out: Drug uptake
measurement type: concentration at 24 h (ng/g)
# unit: ng/g | format: bare number

Input: Using known records, supply concentration at 24 h for `CCCON=C1CCCCCCCCCCC(=O)NCCC1`
Output: 4270

---

assay: Biodistribution in Gossypium hirsutum (cotton) plant root at 500 mg/L after 36 hr; type: ADME, organism-based; details: read-out: Drug uptake
measurement type: concentration at 36 h (ng/g)
# unit: ng/g | format: bare number

Input: Using known records, supply concentration at 36 h for `CCCON=C1CCCCCCCCCCC(=O)NCCC1`
Output: 116000

---

experiment: Acute dermal toxicity in Rattus norvegicus (rat); assay type: organism-based, Skin of body; conditions: in vivo, topical or ocular
measurement type: LD50

Input: Using known records, supply LD50 for `CCCON=C1CCCCCCCCCCC(=O)NCCC1`
Output: > 2000 mg/kg

---

experiment: Biodistribution in Gossypium hirsutum (cotton) plant root at 500 mg/L after 24 hr; assay type: ADME, organism-based; conditions: read-out: Drug uptake
measurement type: concentration at 24 h

Input: Using known records, supply concentration at 24 h for `CCCON=C1CCCCCCCCCCC(=O)NCCC1`
Output: 98000 ng/g

---

assay: Biodistribution in Gossypium hirsutum (cotton) plant leaf at 500 mg/L after 48 hr; format: ADME, organism-based; conditions: read-out: Drug uptake
measurement type: concentration at 48 h

Input: Using known records, supply concentration at 48 h for `CCCON=C1CCCCCCCCCCC(=O)NCCC1`
Output: 2530 ng/g

---

assay: Biodistribution in Gossypium hirsutum (cotton) plant leaf at 500 mg/L after 36 hr; type: ADME, organism-based; conditions: read-out: Drug uptake
measurement type: concentration at 36 h (ng/g)
# unit: ng/g | format: bare number

Input: Using known records, supply concentration at 36 h for `CCCON=C1CCCCCCCCCCC(=O)NCCC1`
Output: 2930

---

experiment: Biodistribution in Gossypium hirsutum (cotton) plant leaf at 500 mg/L after 16 hr; type: ADME, organism-based; settings: read-out: Drug uptake
measurement type: concentration at 16 h (ng/g)
# unit: ng/g | format: bare number

Input: Using known records, supply concentration at 16 h for `CCCON=C1CCCCCCCCCCC(=O)NCCC1`
Output: 330

The origin of these recorded values is ChEMBL document CHEMBL3046961.
